Each recorded value in this set is attributed to paper PMC3037833.

- measurementTarget: T1, iCAL056 (N-terminal cysteine on peptide)
- T1 chain: MQTSKI
- assayProtocol: fluorescence polarization competition
pKi: −log10 of the molar value.
measurementKind: pKi

Use these answered entries as a reference point.
Sample NHERF2 PDZ2 (protein) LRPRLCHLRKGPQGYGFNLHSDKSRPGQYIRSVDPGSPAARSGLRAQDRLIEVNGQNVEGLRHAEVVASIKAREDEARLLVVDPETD — what was its pKi? 3.96

Sample NHERF1 PDZ1 (protein) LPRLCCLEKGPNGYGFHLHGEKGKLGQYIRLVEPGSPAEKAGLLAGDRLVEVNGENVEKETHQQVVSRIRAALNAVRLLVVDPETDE — what was its pKi? 3.04

I. NHERF2 PDZ1 (protein) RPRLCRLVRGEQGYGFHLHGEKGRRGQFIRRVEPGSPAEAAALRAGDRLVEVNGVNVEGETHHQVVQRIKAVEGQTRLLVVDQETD
II. NHERF1 PDZ2 (protein) RPRLCTMKKGPSGYGFNLHSDKSKPGQFIRSVDPDSPAEASGLRAQDRIVEVNGVCMEGKQHGDVVSAIRAGGDETKLLVVDRETDE
From the recorded data, which exceeds the other in pKi: I or II ? Selection: enter the item's label. I
(I: 3.09, II: 2.77)
